Origin of values: PubChem BioAssay (NCATS)

Test system: OV90
Assay: Primary qHTS to identify gynecologic anti-cancer compounds using libraries of approved drugs and bioactive compounds (AID 1345084); also: % is scaled to controls: 0 for no effect and ±100 for the full control effect; nearly all actives have a fitted effect of over 55% in size
Conditions: Gynecologic cancer cell panel viability, ATPlite luminescence, 48 h; series mostly up to 57.5 µM
Inconclusive results are not listed. The source made the active and inactive calls. Calls follow the shape of the dose curve; as a rule, active = well fitted cell-killing curve with a large enough effect; inconclusive = small, poorly fitted or top-dose-only effect, or effect the other way; inactive = flat fitted curve, though single readings scatter.

compound | outcome
CCCCOc1cc(C(=O)OCCN(CC)CC)ccc1N | inactive
O=C1OC(OC(=O)c2cccnc2Nc2cccc(C(F)(F)F)c2)c2ccccc21 (configuration not stated) | inactive
CC(=O)NC(Cc1ccccc1)C(=O)O (configuration not stated) | inactive
C[C@H]1O[C@@H](n2cc(F)c(=O)[nH]c2=O)[C@H](O)[C@@H]1O | inactive
CC(=O)CCC(=O)O | inactive
O=C(O)c1ccccc1-c1ccc(C(F)(F)F)cc1 | inactive
N[C@@H](CSCCCO)C(=O)O | inactive
O=C1O[C@H](CO)[C@@H](O)[C@H](O)[C@H]1O | inactive
NC1[C@H]2CN(c3nc4c(cc3F)c(=O)c(C(=O)O)cn4-c3ccc(F)cc3F)C[C@@H]12 (some centres not stated) | inactive
CCOC(CN1CCN(CC(C)C(=O)c2ccccc2)CC1)c1ccccc1 (configuration not stated) | inactive
COc1cc(C(=O)N2CCOCC2)cc(OC)c1OC | inactive
CC(=O)Nc1ccc(/C=N/NC(N)=S)cc1 | inactive

###

Test: NS1 protein of Zika virus - qHTS assay to identify small molecule inhibitors in human HEK 293 cells (AID 1347053);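 also: plate controls were infected untreated cells for no effect and uninfected cells for full effect; nearly all actives have a fitted effect of over 55% in size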
Settings: HEK293 ZIKV MR766 infection, NS1 TR-FRET, 24 h; series mostly up to 46.1 µM
Records with an inconclusive call do not appear. The source made the active and inactive calls. Calls follow the shape of the dose curve; as a rule, active = well fitted inhibition curve with a large enough effect; inconclusive = small, poorly fitted or top-dose-only effect; inactive = no such curve, though single readings can be large or run the other way.
reported-endpoint: activity change, negative = inhibition

compound | reported-endpoint | result
CC(=O)NC(Cc1ccccc1)C(=O)O (stereo unspecified) | activity change, negative = inhibition | inactive
NC(=O)c1ncn([C@@H]2O[C@H](CO)[C@@H](O)[C@H]2O)n1 | activity change, negative = inhibition | inactive
CCOC(=O)[C@H](CCc1ccccc1)N[C@@H](C)C(=O)N1C(=O)N(C)C[C@H]1C(=O)O | activity change, negative = inhibition | inactive
CC(=O)Nc1ccc(/C=N/NC(N)=S)cc1 | activity change, negative = inhibition | inactive
C[C@](N)(Cc1ccc(O)cc1)C(=O)O | activity change, negative = inhibition | inactive
NCCNCCNCCNCCN | activity change, negative = inhibition | -10.7% [at 9.2 µM] (inactive)

###

Experiment: qHTS to identify inhibitors of the type 1 interferon - major histocompatibility complex class I in skeletal muscle: primary screen against the NCATS Pharmaceutical Collection (AID 1347407);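 also: luminescence of HiBiT knocked into endogenous HLA-B as interferon-induced MHC class I level; % is scaled to controls: 0 for no effect and ±100 for the full control effect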
Details: human skeletal muscle cells, IFN-b-induced MHC-I HiBiT luminescence, 24 h; series mostly up to 45.9 µM
Source text: Assay Submitter (PI): Travis B. Kinder Ph.D. & James Inglese Ph.D. Assay Development and Screening Technology Laboratory (ADST) National Center for Advancing Translational Sciences (NCATS), Rockville, MD National Institute of Health (NIH), Bethesda, Maryland […]
Results filed as inconclusive are left out. Activity calls are given as the source filed them. Calls follow the shape of the dose curve; as a rule, active = well fitted inhibition curve with a large enough effect; inconclusive = small, poorly fitted or top-dose-only effect; inactive = flat fitted curve, though single readings scatter.

smiles-entry | activity change, negative = inhibition
C[C@]12CC[C@@H]3c4ccc(O)cc4CC[C@H]3[C@@H]1CC[C@@H]2OC(=O)CCC1CCCC1 | inactive
Nc1ccc(S(=O)(=O)Nc2ccc(Cl)nn2)cc1 | inactive
O=C(O)Cc1sc(-c2ccccc2)nc1-c1ccc(Cl)cc1 | inactive

###

Tested on: HB3
Assay: qHTS profiling for inhibitors of Plasmodium falciparum proliferation (AID 504749); also: nearly all actives have a fitted effect of over 60% in size
Settings: P. falciparum in erythrocytes, SYBR Green DNA, 72 h; series mostly up to 28.7 µM
Records with an inconclusive call do not appear. Calls of active or inactive are those of the source. Calls follow the shape of the dose curve; as a rule, active = well fitted inhibition curve with a large enough effect; inconclusive = small, poorly fitted or top-dose-only effect; inactive = flat fitted curve, though single readings scatter.
Outcomes: active, inactive

compound | category-label
CC12CCC(CC1)C(C)(C)O2 | inactive
CC1(C)OC(=O)NC1=O | inactive
CCCCOc1cc(C(=O)OCCN(CC)CC)ccc1N | inactive
C[C@H](N)[C@H](O)c1cccc(O)c1 | inactive
Oc1cccc(O)c1 | inactive
NC(=O)NNc1ccccc1 | inactive
CCOC(=O)[C@H](CCc1ccccc1)N[C@@H](C)C(=O)N1C(=O)N(C)C[C@H]1C(=O)O | inactive
O=c1cc[nH]c(=S)[nH]1 | inactive
O=C1NC(=O)[C@@]2(CCOc3ccc(F)cc32)N1 | inactive
CCCc1c(OCCCCc2nn[nH]n2)ccc(C(C)=O)c1O | inactive
O=S(=O)(O)NC1CCCCC1 | inactive
O=C(O)COc1nn(Cc2ccccc2)c2ccccc12 | inactive
CCOC(CN1CCN(CC(C)C(=O)c2ccccc2)CC1)c1ccccc1 (stereo unspecified) | inactive
O=C(CCCN1CCN(c2ccccn2)CC1)c1ccc(F)cc1 | inactive
COc1ccc2c(c1)C(=O)N(CCc1ccc(S(=O)(=O)NC(=O)NC3CCCCC3)cc1)C(=O)C2(C)C | inactive
C[C@](N)(Cc1ccc(O)cc1)C(=O)O | inactive
CC1=C(/C=C/C(C)=C/C=C/C(C)=C/C(=O)O)C(C)(C)CCC1 | inactive
CCCCN(CCCC)CC(O)c1cc(Cl)cc2c1-c1ccc(Cl)cc1/C2=C/c1ccc(Cl)cc1 (stereo unspecified) | active
O=Cc1ccccc1C=O | inactive
Oc1cn2c(n1)Nc1ccc(Cl)c(Cl)c1C2 | inactive
OCc1cc(C(O)CNCCCCCCOCCCCc2ccccc2)ccc1O (stereo unspecified) | inactive
CC(O)COc1ccccc1 (stereo unspecified) | inactive
CN(C)CCCN1c2ccccc2Sc2ccc(Cl)cc21 | inactive
CCC(=O)c1ccc(O)cc1 | inactive
COCCOC(=O)C1=C(C)NC(C)=C(C(=O)OC/C=C/c2ccccc2)C1c1cccc([N+](=O)[O-])c1 (stereo unspecified) | active
NC(=O)N/N=C/c1ccc([N+](=O)[O-])o1 | active

###

Experiment: A High-Content qHTS Against Drug Library for the Identification of Small Molecules that Inhibit DYT1 Early Onset Primary Dystonia-Associated Cell Pathology (AID 1645839)
Details: HEK293 Flp-In EGFP-delE TorsinA, punctate imaging, 48 h; series mostly up to 46.1 µM
Results filed as inconclusive are left out. Active and inactive are the calls of the source. The call rests on the fitted dose curve.
reported-endpoint: % pathology change, negative = correction

molecule | result
CN1CCOC(c2ccccc2)c2ccccc2C1 (stereo unspecified) | inactive
O=C1N=C(O)CN1/N=C/c1ccc(-c2ccc([N+](=O)[O-])cc2)o1 | inactive
O=C(O)c1ccccn1 | inactive
C[C@](N)(Cc1ccc(O)cc1)C(=O)O | 14.7% [at 4.63 µM] (inactive)
COC(=O)C1=C(C)NC(C)=C(C(=O)OC)C1c1ccccc1[N+](=O)[O-] | inactive
O=c1[nH]c(=O)c2[nH]c(=O)[nH]c2[nH]1 | 7.44% [at 9.22 µM] (inactive)

###

Molecular target: Glutathione peroxidase 1 (Homo sapiens)
Assay: Primary qHTS Assay for Inhibitors of Recombinant Selenoprotein Glutathione Peroxidase 1 (GPX1) (AID 1845191); also: nearly all actives have a fitted effect of over 65% in size
Conditions: recombinant GPX1, GR-coupled NADPH fluorescence, 15 min; series mostly up to 48.8 µM
Records with an inconclusive call do not appear. The source made the active and inactive calls. The call rests on the fitted dose curve; in most records, active means well fitted inhibition curve with a large enough effect; inconclusive means small, poorly fitted or top-dose-only effect; inactive means flat fitted curve, though single readings scatter.

molecule | outcome
CC(CN(C)C)CN1c2ccccc2CCc2ccccc21 (stereo unspecified) | inactive
C[C@]12CC[C@@H]3c4ccc(O)cc4CC[C@H]3[C@@H]1CCC2=O | inactive
NC(CSCC(=O)O)C(=O)O (stereo unspecified) | inactive
C[C@@H]1CCN(C(=O)[C@H](CCCN=C(N)N)NS(=O)(=O)c2cccc3c2NC[C@H](C)C3)[C@@H](C(=O)O)C1 | inactive
Cc1cc(O)cc2c1O[C@](C)(CCC[C@H](C)CCC[C@H](C)CCCC(C)C)CC2 | inactive
Oc1ccc(C(O)CNCCCCCCNCC(O)c2ccc(O)c(O)c2)cc1O (stereo unspecified) | inactive
OCCN1CCN(CCCN2c3ccccc3Sc3ccc(Cl)cc32)CC1 | inactive
CC(COc1ccccc1)NC(C)C(O)c1ccc(O)cc1 (stereo unspecified) | inactive
O=C(O)COc1nn(Cc2ccccc2)c2ccccc12 | inactive
Cc1cc(C(C#N)c2ccc(Cl)cc2)c(Cl)cc1NC(=O)c1cc(I)cc(I)c1O (stereo unspecified) | inactive
CC(CN1c2ccccc2Sc2ccccc21)N(C)C (stereo unspecified) | inactive
CCOc1nc2cccc(C(=O)O)c2n1Cc1ccc(-c2ccccc2-c2nn[nH]n2)cc1 | inactive
Cc1ccc2nc(N)[nH]c(=O)c2c1Sc1ccncc1 | inactive
N=c1c[n+](N2CCOCC2)[n-]o1 | inactive
COc1ccc2cc1Oc1ccc(cc1)C[C@H]1c3c(cc4c(c3Oc3cc5c(cc3OC)CCN(C)[C@@H]5C2)OCO4)CCN1C | inactive
O=C(Oc1ccccc1C(=O)O)c1ccccc1O | inactive
OCc1cc(C(O)CNCCCCCCOCCCCc2ccccc2)ccc1O (stereo unspecified) | inactive
Cc1cc2c(cc1S(N)(=O)=O)S(=O)(=O)CCC2 | inactive
Nc1ccc(S(=O)(=O)NC(=O)c2ccccc2)cc1 | inactive
Nc1ncnc2c1ncn2[C@@H]1O[C@H](CO)[C@@H](O)[C@H]1O | inactive
CC(C)(C)C(=O)C(Oc1ccc(Cl)cc1)n1ccnc1 (stereo unspecified) | inactive
CC(=O)O[C@@]12CO[C@@H]1C[C@H](O)[C@@]1(C)C(=O)[C@H](O)C3=C(C)[C@@H](OC(=O)[C@H](O)[C@@H](NC(=O)OC(C)(C)C)c4ccccc4)C[C@@](O)([C@@H](OC(=O)c4ccccc4)[C@H]21)C3(C)C | inactive
O=C(O)[C@H](O)c1ccccc1 | inactive
O=c1[nH]cnc2c1ncn2[C@@H]1O[C@H](CO)[C@@H](O)[C@H]1O | inactive
CC(=O)c1ccc2c(c1)N(CCCN(C)C)c1ccccc1S2 | inactive
CC(C)c1c(C(=O)Nc2ccccc2)c(-c2ccccc2)c(-c2ccc(F)cc2)n1CC[C@@H](O)C[C@@H](O)CC(=O)O | inactive
CN1[C@@H]2CC[C@H]1CC(OC(=O)C(O)c1ccccc1)C2 (stereo partly specified) | inactive
CC(C(O)c1ccc(O)cc1)N1CCC(Cc2ccccc2)CC1 (stereo unspecified) | inactive
O=C(CCCN1CCN(c2ccccn2)CC1)c1ccc(F)cc1 | inactive
C[C@@H]1CN(c2c(F)c(F)c3c(=O)c(C(=O)O)cn(C4CC4)c3c2F)C[C@H](C)N1 | inactive
CN(C)CCOC(C)(c1ccccc1)c1ccccn1 (stereo unspecified) | inactive
CCCCOc1cc(C(=O)OCCN(CC)CC)ccc1N | inactive
O=C1c2c(O)cccc2Cc2cccc(O)c21 | inactive
O=C(O)CC(O)C(=O)O (stereo unspecified) | inactive
C[C@H](NC(CCc1ccccc1)C(=O)O)C(=O)N1CCC[C@H]1C(=O)O (stereo partly specified) | inactive
C[C@@H](O)[C@H](N)C(=O)O | inactive
Cn1cc[nH]c1=S | inactive
Oc1cn2c(n1)Nc1ccc(Cl)c(Cl)c1C2 | inactive
CN1CCCCC1CCN1c2ccccc2Sc2ccc(S(C)=O)cc21 (stereo unspecified) | inactive
CC[C@@]1(c2ccccc2)NC(=O)N(C)C1=O | inactive
NC(N)=NCCC[C@H](N)C(=O)O | inactive
CNCCC(Oc1ccc(C(F)(F)F)cc1)c1ccccc1 (stereo unspecified) | inactive
O=Cc1ccccc1C=O | inactive
CNC(=O)Oc1ccc2c(c1)[C@]1(C)CCN(C)[C@@H]1N2C | inactive
O=C(O)Cc1sc(-c2ccccc2)nc1-c1ccc(Cl)cc1 | inactive
Nc1ccc(S(=O)(=O)Nc2nccs2)cc1 | inactive
